PROTOCOL: Cell viability assay (WST-1)
Format: cell-based, murine
MEASUREMENT CONDITIONS: mouse, RAW 264.7 cells; −LPS, at concentrations ≥ 50 μg/mL; read-out: percentage of viable cells
ASSAY METRIC: viability

Which viability reading was recorded for the molecule CC1(C)C=Cc2c(ccc3c2OC[C@@H](c2ccc(O)cc2O)C3)O1 ?
≤ 30%

Where do these numbers come from? They come from paper PMC11051159.
